Ref: PubChem BioAssay (NCI)

Tested on: OVCAR-8 ovarian
Assay: NCI-60 one-dose screen, 48 h (100 = growth as untreated, 0 = no growth, -100 = all killed)
Conditions: 10 µM unless noted
The panel holds about 83,000 compounds, 20% with a hit somewhere; the sample as a whole holds those more often.
# key: entry, value: growth
Property name: growth (%)

>>> measured_value("COc1ccc(/C=C/C(=O)NCC(C)O)cc1 (centres undefined)")
97.9
>>> measured_value("COC(=O)[C@]12CC[C@@H](C)[C@H](C)[C@@H]1C1=CC[C@@H]3[C@@]4(C)CC(=O)[C@H](OC(=O)c5ccco5)[C@@]5(C)COC(=C45)C[C@@]3(C)[C@]1(C)CC2")
28.5
>>> measured_value("COc1ccc(/C=C(\\C#N)c2cc3ccccc3n2S(C)(=O)=O)cc1")
95.9
>>> measured_value("COc1cnc2c(c1)C(=O)c1c-2n(CCCNC2=NCCS2)c(=O)c2cc([N+](=O)[O-])ccc12")
-6.2
>>> measured_value("c1cnc2[nH]cc(-c3csc(-c4cn(CCCN5CCCCC5)c5ccccc45)n3)c2c1")
69.7
>>> measured_value("O=C1OC(c2ccc(Cl)c(Cl)c2)=C/C1=C/c1cccc([N+](=O)[O-])c1")
99.4
>>> measured_value("CC(=O)NC1=C(C#N)C(c2ccccc2Cl)c2c(ccc3ccccc23)O1 (centres undefined)")
82
>>> measured_value("Cn1c(=O)c2c(nc(N3CCCC3)n2C)n(C)c1=O")
100
>>> measured_value("Cn1cc(-c2nc(-c3c[nH]c4ncccc34)cs2)c2cc(Br)ccc21")
104
>>> measured_value("O=C(N/N=C\\c1ccccc1O)C1CC1")
93.5
>>> measured_value("C#CCC(C)(O)/C=C/C1=C(C)CCCC1(C)C (centres undefined)")
101
>>> measured_value("CC(=O)c1c(C)[nH]c(-c2nc3ccc(N4CCN(C)CC4)cc3[nH]2)c1-c1ccc2c(c1)OCCO2")
48.2
>>> measured_value("C/C(=N\\Nc1cc(C)c2cc(C)ccc2n1)c1ccccn1")
-60
>>> measured_value("c1ccc(CN2C(c3ccccc3)=Nc3ccccc3C2c2c[nH]c3ccccc23)cc1 (centres undefined)")
44.4
>>> measured_value("COC(=O)C(N)CSC(c1ccccc1)(c1ccccc1)c1ccccc1 (centres undefined)")
36.8
>>> measured_value("O=C1c2ccccc2NC(c2cn(-c3ccccc3)nc2-c2cccnc2)N1Cc1ccccc1 (centres undefined)")
98.3
>>> measured_value("Cc1cccc(C)c1NC(=O)CSC(=S)N1CCN(CCOCCO)CC1")
106
>>> measured_value("O=C1c2cccc3cccc(c23)C(=O)N1CC#Cc1ccc2c3c(cccc13)C(=O)N(CCO)C2=O")
86.5
>>> measured_value("CCCCCCCN(CCCCCCC)C(=N)c1ccnc2ccccc12")
-40.8
>>> measured_value("O=C(/C=C\\c1ccc2c(c1)OCO2)/C=C/c1ccc2c(c1)OCO2")
101
>>> measured_value("N#CC1=C(N)Oc2c(c(N)nn2-c2ccccc2)C1c1ccc(Cl)cc1Cl (centres undefined)")
96.9
>>> measured_value("COc1ccc(/C=C2\\N=C(c3ccccc3)N(c3cc(OC)c(OC)cc3C(=O)N3N=C(C)CC3=O)C2=O)cc1")
89.4
>>> measured_value("CC(=O)N1N=C(c2ccc(C)cc2)CC1c1ccc(Oc2ccc(Br)cc2)cc1 (centres undefined)")
85.2
>>> measured_value("CC(=O)c1c(C)[nH]c(-c2nc3ccc(N4CCN(C)CC4)cc3[nH]2)c1-c1ccc(OCC2CCOCC2)cc1")
38
>>> measured_value("C=CC(=O)N[C@H](Cc1ccc(-c2cc(Cl)cc(Cl)c2)cc1)[C@H](O)[C@@H](O)C(=O)O")
90.9
>>> measured_value("COc1cc(-c2cc3ncccc3c3nc(N)c4cccnc4c23)cc(OC)c1OC")
26.9
>>> measured_value("Clc1ccc2[nH]cc(-c3nc(-c4c[nH]c5ncccc45)cs3)c2c1")
46.2
>>> measured_value("Cc1cc(N2CCCCC2)nc(N(CCCNc2ccnc3cc(Cl)ccc23)Cc2ccco2)n1")
42.5
>>> measured_value("C=C(C)[C@@H]1CC[C@]2(C=O)CC[C@]3(C)[C@H](CC[C@@H]4[C@@]5(C)C/C(=C/c6cccnc6)C(=O)C(C)(C)[C@@H]5CC[C@]43C)[C@@H]12")
63.5
>>> measured_value("CCN1CCN(c2nc(C)cc(N(CCCNc3ccnc4cc(Cl)ccc34)Cc3ccco3)n2)CC1")
58.5
>>> measured_value("[B-][N+](CC)(CC)c1ccccc1")
112
>>> measured_value("COc1cc(/C=C2\\C(=O)N(CC(O)COc3cc(O)c4c(=O)cc(-c5ccccc5)oc4c3)c3ccccc32)cc(OC)c1O (centres undefined)")
77
>>> measured_value("Cc1cc(Cl)c2c(N(C)C)cccc2n1")
94.5
>>> measured_value("C=C(C)[C@@H]1CC[C@]2(C(=O)OC)CC[C@]3(C)[C@H](CC[C@@H]4[C@@](C)(CC/C(N)=N/O)[C@H](C(=C)C)CC[C@]43C)[C@@H]12")
102
>>> measured_value("CC(C)(C)c1nc(-c2ccc(O)c(O)c2)cs1")
60.9
>>> measured_value("Nc1c2c(nc3ccc(Cl)cc13)CC(c1ccc(O)cc1)CC2=O (centres undefined)")
75.5
>>> measured_value("Cn1c(/C(C#N)=C/c2ccc3ccccc3c2)cc2ccccc21")
30.3
>>> measured_value("O=C(NO)c1ccc(Cn2c(=O)n(CCc3ccc(O)cc3)c(=O)c3ccccc32)cc1")
36.2
>>> measured_value("Cc1cc2nc3c4cc(Cl)ccc4n(CCN(C)C)c3nc2cc1C")
19.1

* * *

System: CCRF-CEM leukemia
Test: NCI-60 one-dose screen, 48 h (100 = growth as untreated, 0 = no growth, -100 = all killed)
Conditions: 10 µM unless noted
This is part of a sample that, as a whole, favours compounds with a hit. Of some 83,000 tested, about 20% had one in any assay.
Property name: growth (%)

>>> measured_value("COc1ccc(O)c(-c2cc(-c3ccc(Cl)cc3)c(C#N)c(=O)[nH]2)c1")
37.2
>>> measured_value("O=C1OC(c2ccc(Cl)c(Cl)c2)=C/C1=C/c1cccc([N+](=O)[O-])c1")
103
>>> measured_value("COc1cc2ncnc(Nc3ccc(OCc4cccc(F)c4)c(Cl)c3)c2cc1NC(=O)C1CCCC1")
92.6
>>> measured_value("Nc1c(C(=O)Nc2c(Cl)cccc2Cl)sc2nc3c(cc12)C(=O)CCC3")
54.8
>>> measured_value("Cn1nc(-c2ccccc2)c2c(-c3ccccc3)onc2c1=O")
20.9
>>> measured_value("N#C/C(=C\\c1ccc(-c2cccc(C(F)(F)F)c2)o1)c1nc(-c2ccco2)cs1")
93.7
>>> measured_value("CN(C)CCCC1(c2ccc(F)cc2)OCc2cc(-c3ccc(C(F)(F)F)nc3)ccc21 (stereo not given)")
69.1
>>> measured_value("CCCC(=O)N1CCCCC1CC (stereo not given)")
95.3
>>> measured_value("c1csc(-c2nc(-c3cc4ccccc4c(N4CCOCC4)n3)cs2)c1")
107
>>> measured_value("O=C1NC(c2ccc(Cl)c(Cl)c2)=C/C1=C\\c1ccccc1")
45.8

* * *

Test system: UACC-62 melanoma
Assay: NCI-60 one-dose screen, 48 h
Conditions: 10 µM unless noted
Method: Growth inhibition of the UACC-62 human tumor cell line is measured as a screen for anti-cancer activity. Cells are grown in 96 well plates and exposed to the test compound for 48 hours. Compounds are tested at a single concentration, which is 10^-5 M for most compounds. The reported endpoint is percent growth (GI% or GIPRCNT), where numbers from 0 - 100% represent growth inhibition, and numbers from -100% - 0 represent cell death. For example, a value of 40 represents 60% growth inhibition. […]
This is part of a sample that, as a whole, favours compounds with a hit. Of some 83,000 tested, about 20% had one in any assay. Activity calls are given as the source filed them. Rule for the calls: active = growth percent below 10; inactive = the rest.
Labels: active, inactive

>>> classification("CC(C)(C)c1ccc(OP(=S)(N/N=C/c2ccccc2O)Oc2ccc(C(C)(C)C)cc2)cc1")
"inactive"
>>> classification("N#C/C(=C\\c1ccc(-c2ccc(Br)cc2)o1)c1nc(-c2ccco2)cs1")
"inactive"
>>> classification("[B-][N+](CC)(CC)c1ccccc1")
"inactive"
>>> classification("COc1cc(-c2cc(-c3nc4ccc(F)cc4[nH]3)[nH]n2)cc(OC)c1OC")
"active"
>>> classification("CC(=O)c1c(C)[nH]c(-c2nc3ccc(N4CCN(C)CC4)cc3[nH]2)c1-c1ccc2c(c1)OCCO2")
"inactive"
>>> classification("O=C1OC(c2ccc(Cl)c(Cl)c2)=C/C1=C/c1cccc([N+](=O)[O-])c1")
"inactive"
>>> classification("O=c1c2sc3ncc(Br)cc3c2ncn1-c1cccc(Cl)c1")
"inactive"
>>> classification("COc1cc(NC(C)CN(CC(C)C)C(C)C)c2ncccc2c1 (configuration not stated)")
"inactive"
>>> classification("Cn1cc(-c2nc(-c3cn(C)c4ncccc34)cs2)c2ccccc21")
"inactive"
>>> classification("CCOC(=O)C1OC1(c1ccccc1)c1ccccc1 (configuration not stated)")
"inactive"
>>> classification("C#Cc1cccc(NC(=O)C2CCCN(C(=O)CCl)C2)c1 (configuration not stated)")
"inactive"
>>> classification("Oc1ccccc1/C=N\\NC(=S)Nc1ccc(F)cc1")
"active"
>>> classification("OCCNc1nc(Nc2ccc(Cl)c(Cl)c2)nc2ccccc12")
"inactive"
>>> classification("O=C(N/N=C\\c1c(O)ccc2ccccc12)C1CC1")
"inactive"
>>> classification("COC(=O)CNc1nc(N(C)O)nc(N(C)O)n1")
"inactive"
>>> classification("O=C(O)/C(=C/c1ccc(O)cc1)c1ccccc1")
"inactive"
>>> classification("COc1ccc(/C=C2\\N=C(c3ccccc3)N(c3cc(OC)c(OC)cc3C(=O)N3N=C(C)CC3=O)C2=O)cc1")
"inactive"
>>> classification("CC(=O)N1N=C(c2ccc(C)cc2)CC1c1ccc(Oc2ccc(Br)cc2)cc1 (configuration not stated)")
"inactive"
>>> classification("O=[N+]([O-])c1cccc(/C=N\\Nc2ccccc2)c1")
"active"
>>> classification("NC1(N)C=CC2=C(C=C1)C1(N)C3=C(C=CC(N)(N)C=C3)N2C2(N)C3=C(C=CC(N)(N)C=C3)N1C1=C2C=CC(N)(N)C=C1")
"inactive"
>>> classification("c1csc(-c2nc(-c3cc4ccccc4c(N4CCOCC4)n3)cs2)c1")
"inactive"
>>> classification("O=C1C(=O)c2ccccc2C(O)=C1CCCc1ccc(C2CCCCC2)cc1")
"inactive"
